These entries and their values trace back to paper PMC7721954.

System: LNCaP tumor-bearing male CB-17 SCID mice
PROTOCOL: Biodistribution 1 h p.i. with competition (co-injection of 2-PMPA)
Format: in vivo
PROTOCOL CONDITIONS: co-injected with 2-PMPA (8 mg/kg), n = 3
I'd appreciate it if you could supply Biodistribution Liver values for the items below.
Kindly answer with a numeric value in % ID/g, unit omitted.

[in] I have this compound here, CC(C)(C)[Si]([18F])(c1ccc(C(=O)NC[C@@H](NC(=O)CC[C@@H](C(=O)O)N2CCN(CC(=O)[O-])CCN(CC(=O)[O-])CCN(CC(=O)[O-])CC2)C(=O)N[C@H](CCCCNC(=O)CCC(=O)NCCC[C@@H](NC(=O)CC[C@H](NC(=O)N[C@@H](CCC(=O)O)C(=O)O)C(=O)O)C(=O)O)C(=O)O)cc1)C(C)(C)C.[Ga+3] [[^18F, ^natGa]rhPSMA-7.3] , and I need its recorded Biodistribution Liver.
[out] 0.46

[in] I have this compound here, CC(C)(C)[Si]([18F])(c1ccc(C(=O)NC[C@H](NC(=O)CC[C@H](C(=O)O)N2CCN(CC(=O)[O-])CCN(CC(=O)[O-])CCN(CC(=O)[O-])CC2)C(=O)N[C@H](CCCCNC(=O)CCC(=O)NCCC[C@@H](NC(=O)CC[C@H](NC(=O)N[C@@H](CCC(=O)O)C(=O)O)C(=O)O)C(=O)O)C(=O)O)cc1)C(C)(C)C.[Ga+3] [[^18F, ^natGa]rhPSMA-7.2] , and I need its recorded Biodistribution Liver.
[out] 0.46

[in] I have this compound here, CC(C)(C)[Si]([18F])(c1ccc(C(=O)NC[C@@H](NC(=O)CC[C@H](C(=O)O)N2CCN(CC(=O)[O-])CCN(CC(=O)[O-])CCN(CC(=O)[O-])CC2)C(=O)N[C@H](CCCCNC(=O)CCC(=O)NCCC[C@@H](NC(=O)CC[C@H](NC(=O)N[C@@H](CCC(=O)O)C(=O)O)C(=O)O)C(=O)O)C(=O)O)cc1)C(C)(C)C.[Ga+3] [[^18F, ^natGa]rhPSMA-7.1] , and I need its recorded Biodistribution Liver.
[out] 0.43

[in] I have this compound here, CC(C)(C)[Si]([18F])(c1ccc(C(=O)NC[C@H](NC(=O)CC[C@@H](C(=O)O)N2CCN(CC(=O)[O-])CCN(CC(=O)[O-])CCN(CC(=O)[O-])CC2)C(=O)N[C@H](CCCCNC(=O)CCC(=O)NCCC[C@@H](NC(=O)CC[C@H](NC(=O)N[C@@H](CCC(=O)O)C(=O)O)C(=O)O)C(=O)O)C(=O)O)cc1)C(C)(C)C.[Ga+3] [[^18F, ^natGa]rhPSMA-7.4] , and I need its recorded Biodistribution Liver.
[out] 0.48

---

Test system: LNCaP tumor-bearing male CB-17 SCID mice
PROTOCOL: Biodistribution 1 h p.i.
Assay type: in vivo
READOUT LABEL: Biodistribution Intestine (% ID/g)
Kindly answer with a numeric value in % ID/g, unit omitted.

[in] So what Biodistribution Intestine did CC(C)(C)[Si]([18F])(c1ccc(C(=O)NC[C@H](NC(=O)CC[C@@H](C(=O)O)N2CCN(CC(=O)[O-])CCN(CC(=O)[O-])CCN(CC(=O)[O-])CC2)C(=O)N[C@H](CCCCNC(=O)CCC(=O)NCCC[C@@H](NC(=O)CC[C@H](NC(=O)N[C@@H](CCC(=O)O)C(=O)O)C(=O)O)C(=O)O)C(=O)O)cc1)C(C)(C)C.[Ga+3] [[^18F, ^natGa]rhPSMA-7.4] get with LNCaP tumor-bearing male CB-17 SCID mice?
[out] 0.37

---

Test system: LNCaP tumor-bearing male CB-17 SCID mice
PROTOCOL: Biodistribution 1 h p.i.
Assay type: in vivo
READOUT LABEL: Biodistribution Kidneys (% ID/g)
Kindly answer with a numeric value in % ID/g, unit omitted.

[in] I have this compound here, CC(C)(C)[Si]([18F])(c1ccc(C(=O)NC[C@@H](NC(=O)CC[C@@H](C(=O)O)N2CCN(CC(=O)[O-])CCN(CC(=O)[O-])CCN(CC(=O)[O-])CC2)C(=O)N[C@H](CCCCNC(=O)CCC(=O)NCCC[C@@H](NC(=O)CC[C@H](NC(=O)N[C@@H](CCC(=O)O)C(=O)O)C(=O)O)C(=O)O)C(=O)O)cc1)C(C)(C)C.[Ga+3] [[^18F, ^natGa]rhPSMA-7.3] , and I need its recorded Biodistribution Kidneys.
[out] 292

[in] I have this compound here, CC(C)(C)[Si]([18F])(c1ccc(C(=O)NC[C@@H](NC(=O)CC[C@H](C(=O)O)N2CCN(CC(=O)[O-])CCN(CC(=O)[O-])CCN(CC(=O)[O-])CC2)C(=O)N[C@H](CCCCNC(=O)CCC(=O)NCCC[C@@H](NC(=O)CC[C@H](NC(=O)N[C@@H](CCC(=O)O)C(=O)O)C(=O)O)C(=O)O)C(=O)O)cc1)C(C)(C)C.[Ga+3] [[^18F, ^natGa]rhPSMA-7.1] , and I need its recorded Biodistribution Kidneys.
[out] 220

[in] I have this compound here, CC(C)(C)[Si]([18F])(c1ccc(C(=O)NC[C@H](NC(=O)CC[C@@H](C(=O)O)N2CCN(CC(=O)[O-])CCN(CC(=O)[O-])CCN(CC(=O)[O-])CC2)C(=O)N[C@H](CCCCNC(=O)CCC(=O)NCCC[C@@H](NC(=O)CC[C@H](NC(=O)N[C@@H](CCC(=O)O)C(=O)O)C(=O)O)C(=O)O)C(=O)O)cc1)C(C)(C)C.[Ga+3] [[^18F, ^natGa]rhPSMA-7.4] , and I need its recorded Biodistribution Kidneys.
[out] 153

[in] I have this compound here, CC(C)(C)[Si]([18F])(c1ccc(C(=O)NC[C@H](NC(=O)CC[C@H](C(=O)O)N2CCN(CC(=O)[O-])CCN(CC(=O)[O-])CCN(CC(=O)[O-])CC2)C(=O)N[C@H](CCCCNC(=O)CCC(=O)NCCC[C@@H](NC(=O)CC[C@H](NC(=O)N[C@@H](CCC(=O)O)C(=O)O)C(=O)O)C(=O)O)C(=O)O)cc1)C(C)(C)C.[Ga+3] [[^18F, ^natGa]rhPSMA-7.2] , and I need its recorded Biodistribution Kidneys.
[out] 87.6

---

System: LNCaP tumor-bearing male CB-17 SCID mice
PROTOCOL: Biodistribution 1 h p.i.
Format: in vivo
Procedure: LNCaP tumor xenografts were established in 6–8 weeks old male CB-17 SCID mice as described previously. 1–3 MBq (0.2 nmol) of the [^18F, ^natGa]rhPSMA inhibitors were injected into the tail vein of LNCaP tumor-bearing male CB-17 SCID mice that were sacrificed 1 h post injection (p.i.) (n = 4 for 7.1, n = 5 for 7.2, n = 4 for 7.3, n = 5 for 7.4 and n = 3 for 7). Selected organs were removed, weighed, and measured in a γ-counter. […]
READOUT LABEL: Biodistribution Spleen (% ID/g)
Kindly answer with a numeric value in % ID/g, unit omitted.

[in] So what Biodistribution Spleen did CC(C)(C)[Si]([18F])(c1ccc(C(=O)NC[C@@H](NC(=O)CC[C@@H](C(=O)O)N2CCN(CC(=O)[O-])CCN(CC(=O)[O-])CCN(CC(=O)[O-])CC2)C(=O)N[C@H](CCCCNC(=O)CCC(=O)NCCC[C@@H](NC(=O)CC[C@H](NC(=O)N[C@@H](CCC(=O)O)C(=O)O)C(=O)O)C(=O)O)C(=O)O)cc1)C(C)(C)C.[Ga+3] [[^18F, ^natGa]rhPSMA-7.3] get with LNCaP tumor-bearing male CB-17 SCID mice?
[out] 16.6

[in] So what Biodistribution Spleen did CC(C)(C)[Si]([18F])(c1ccc(C(=O)NC[C@@H](NC(=O)CC[C@H](C(=O)O)N2CCN(CC(=O)[O-])CCN(CC(=O)[O-])CCN(CC(=O)[O-])CC2)C(=O)N[C@H](CCCCNC(=O)CCC(=O)NCCC[C@@H](NC(=O)CC[C@H](NC(=O)N[C@@H](CCC(=O)O)C(=O)O)C(=O)O)C(=O)O)C(=O)O)cc1)C(C)(C)C.[Ga+3] [[^18F, ^natGa]rhPSMA-7.1] get with LNCaP tumor-bearing male CB-17 SCID mice?
[out] 20.0

[in] So what Biodistribution Spleen did CC(C)(C)[Si]([18F])(c1ccc(C(=O)NC[C@H](NC(=O)CC[C@@H](C(=O)O)N2CCN(CC(=O)[O-])CCN(CC(=O)[O-])CCN(CC(=O)[O-])CC2)C(=O)N[C@H](CCCCNC(=O)CCC(=O)NCCC[C@@H](NC(=O)CC[C@H](NC(=O)N[C@@H](CCC(=O)O)C(=O)O)C(=O)O)C(=O)O)C(=O)O)cc1)C(C)(C)C.[Ga+3] [[^18F, ^natGa]rhPSMA-7.4] get with LNCaP tumor-bearing male CB-17 SCID mice?
[out] 18.4
